Entry source: the supplement of paper PMC10567573

B1: RBBP5 (parent)
chain: TGTSNTTAIKSIEFARKGSCFLIN

variants of: B1; experiment: protein stability index of a GFP-peptide fusion (GPS, HEK-293T) (PSI 1-6); higher = more stable; conditions: c terminus: a fixed tail appended;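 further: lentivirally expressed fusions sorted by FACS into six bins by GFP to DsRed ratio, PSI derived from sequencing read proportions per bin multiplied by bin number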
Listed variants paired with reported protein stability index
MEASURE NAME: protein stability index

RESIDUE CHANGE | MEASUREMENT
T7F | 1.93
N24R | 2.09
L22Y | 2.54
I23H | 2.79
I9E | 2.91
S11R | 2.12
N24S | 2.04
E13A | 1.92
I12R | 2.57
G2W | 2.51
S11D | 2.6
A15E | 2.44
C20E | 2.98
A15R | 2.22
I23T | 3.5
G18R | 2.15
I12H | 2.94
C20P | 2.74
L22D | 3.15
T1S | 2.2
S4C | 2.2
A8H | 1.85
F21N | 3.53
I12E | 3.5
R16N | 3.21
I23D | 3.02
I12F | 2
S4D | 2.35
I9K | 2.47
A15N | 2.67
F14T | 2.97
N24M | 2.16
